- procedure details: solubility in unbuffered water
- Assay type: physicochemical
- test settings: free acid
quantity name: solubility

- compound: "O=C(O)c1ccc2nc(-c3cc(Cl)cc(Cl)c3)oc2c1 [free acid]"
  result: "< 11 µg/mL"
